- subject.of.test: T1, human DLL4, full length, on cells (human, UniProt Q9NR61 27-685)
- T1 construct: also called huDLL4 cells; human DLL4-293G
- test.details: FACS, direct binding to DLL4 cells
measurement.label: EC50
Write the figure, then the unit, nothing else.

h1A11.A12 (antibody, V domains shown, also called h1A11VH.1 / h1A11.A12 VL) VH: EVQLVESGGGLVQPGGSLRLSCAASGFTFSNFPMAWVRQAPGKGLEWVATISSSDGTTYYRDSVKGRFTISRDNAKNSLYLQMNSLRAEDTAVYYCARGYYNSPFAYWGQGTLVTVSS VL: DIQMTQSPSSLSASVGDRVTITCRASQDIYYNLAWYQQKPGKSPKLLIFDTSSLADGVPSRFSGSGSGTDFTLTISSLQPEDFATYFCQQYDWYPPTFGQGTKLEIK    1.77 nM
h1A11.A11 (antibody, V domains shown, also called h1A11.A11 VH / h1A11VL.1) VH: EVQLVESGGGLVQPGGSLRLSCAASGFTFRHFPMAWVRQAPGKGLEWVATISSSDDWPNYRDSVKGRFTISRDNAKSSLYLQMNSLRAEDTAVYYCSRGYYNSPFAYWGQGTLVTVSS VL: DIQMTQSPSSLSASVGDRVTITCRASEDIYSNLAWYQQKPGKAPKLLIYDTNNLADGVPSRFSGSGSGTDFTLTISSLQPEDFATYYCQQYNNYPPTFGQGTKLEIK    2.48 nM

Next item in the queue.
Q. // query EC50 value for entry h1A11.A7 (antibody, V domains shown, also called h1A11VH.1 / h1A11.A7 VL) VH: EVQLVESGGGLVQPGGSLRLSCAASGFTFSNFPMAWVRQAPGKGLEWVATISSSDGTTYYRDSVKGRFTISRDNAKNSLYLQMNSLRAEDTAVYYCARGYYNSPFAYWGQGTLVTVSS VL: DIQMTQSPSSLSASVGDRVTITCRASQDIYINLAWYQQKPGKAPKLLIFDTSDLADGVPSRFSGSGSGTDFTLTISSLQPEDFATYYCQQYDYYPPTFGQGTKLEIK
A. 2.17 nM
